Just for reference, paper PMC12126490 is where these values come from.

Test Target: chromoshadow domain of HP1α (HP1αCSD, aa 109–185 of HP1α) (human, UniProt P45973 109-185)
Sequence (P45973 109-185): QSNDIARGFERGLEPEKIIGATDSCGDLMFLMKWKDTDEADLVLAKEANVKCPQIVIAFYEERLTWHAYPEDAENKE
Parameter Measured: Kd (nM)
Write the answer as a number in nM, unit excluded.

If you can, please state the reported Kd value of RKVPRVSLERL [HP1 box-containing KAP1 peptide (KAP1_(Hbox), aa 483–493 of KAP1)] .
1600
